# protocol-text: Selectivity index, ratio of LC50 for human U937 cells to EC50 for Leishmania (Viannia) braziliensis HMOM/COL/88/UA301-EGFP intracellular amastigotes infected in human U937 cells
# Format: toxicity, cell-based
# experimental-parameters: read-out: Selectivity Index
Consider the following compounds and their measured selectivity ratio readings.

Some compounds with known selectivity ratio results, for comparison:
compound=CCOC(=O)[C@]1(C)CCC[C@@]2(C)[C@@H]3CC[C@@]4(C)C[C@]3(CC[C@@H]21)C/C4=N/O recorded_measurement=1.8
compound=C[C@]12C=C[C@@]3(CC[C@@H]4[C@](C)(CO)CCC[C@@]4(C)[C@@H]3CC1)C2 recorded_measurement=5.1
compound=C[C@]12C=C[C@@]3(CC[C@@H]4[C@@](C)(CO)CCC[C@@]4(C)[C@@H]3CC1)C2 recorded_measurement=7.7
compound="C[C@]12C=C[C@@]3(CC[C@H]4[C@@](C)(CCC[C@@]4(C)C(=O)O)[C@@H]3CC1)C2 [MONOGINOIC ACID]" recorded_measurement="> 2"
compound=C[C@]12CC[C@H]3[C@]4(C)CCC[C@@](C)(CO)[C@H]4CC[C@@]3(C1)[C@H]1O[C@H]12 recorded_measurement="> 1.9"

Query: Give me measured selectivity ratio, please, for this compound: C[C@@]12CC[C@@H]3[C@@](CC[C@@H]4[C@](C)(CO)CCC[C@]43C)(CC1)C2
Reply: 1.6

Query: Give me measured selectivity ratio, please, for this compound: CCOC(=O)[C@]1(C)CCC[C@@]2(C)[C@@H]3CC[C@@]4(C)C[C@]3(CC[C@@H]21)C[C@H]4O
Reply: 1.4

Query: Give me measured selectivity ratio, please, for this compound: C[C@]12CC[C@H]3[C@]4(C)CCC[C@@](C)(C(=O)O)[C@H]4CC[C@@]3(C1)[C@H]1O[C@H]12
Reply: 1.5

Query: Give me measured selectivity ratio, please, for this compound: C[C@@H]1[C@H](O)[C@@H](C)/C=C/C=C/C=C/C=C/C=C/C=C/C=C/[C@H](O[C@@H]2O[C@H](C)[C@@H](O)[C@H](N)[C@@H]2O)C[C@@H]2O[C@](O)(C[C@@H](O)C[C@@H](O)[C@H](O)CC[C@@H](O)C[C@@H](O)CC(=O)O[C@H]1C)C[C@H](O)[C@H]2C(=O)O [AMPHOTERICIN B]
Reply: 71.8

Query: Give me measured selectivity ratio, please, for this compound: CCOC(=O)[C@]1(C)CCC[C@@]2(C)[C@@H]3CC=C(C)C[C@@]3(CC#N)CC[C@@H]21
Reply: 0.6

Query: Give me measured selectivity ratio, please, for this compound: C[C@@]12CC[C@@H]3[C@@](CC[C@H]4[C@@]3(C)CCC[C@@]4(C)C(=O)O)(CC1=O)C2 [ISOSTEVIOL]
Reply: > 3.3
